System: NCI-H460 lung
Assay Summary: NCI tumour cell line growth inhibition, 48 h
Measurement Label: TGI

CN(C)c1ccc(C2CC(c3ccc4ccccc4c3O)=NN2c2ccc([N+](=O)[O-])cc2[N+](=O)[O-])cc1 (centres undefined)    > 100 µM

Lab note: each compound below needs its TGI filled in.
1. Oc1c(Br)cc(/C=C/c2cccc(/C=C/c3cc(Br)c(O)c(Br)c3)n2)cc1Br
2. O=C(N/N=C/c1ccc([N+](=O)[O-])cc1)Nc1ccc(Br)cc1
3. CC(NC(=O)c1ccc(NP(=O)(OCc2ccc([N+](=O)[O-])o2)N(C)CCCCCl)cc1)c1ccc(OCC2CCCCC2)c(C(N)=O)c1 (centres undefined)
4. CCN(CC)C(=S)SC(C(=O)Nc1nnc(-c2ccccc2)o1)c1ccccc1 (centres undefined)
5. O=C1/C(=C/c2ccc(Oc3ccccc3)cc2)N=C(c2ccccc2)N1c1ccc(S(=O)(=O)Nc2nccs2)cc1
6. CC(C)Oc1cccc(N2C(=NCCc3c[nH]c4ccccc34)Nc3ccncc3S2(=O)=O)c1

11.3 µM
> 100 µM
72.3 µM
31.6 µM
> 100 µM
> 100 µM

Lab note: each compound below needs its TGI filled in.
1. CC1(C)NCCC[C@]2(C)[C@H]3CC[C@@H]4[C@H]5[C@H](C(=O)/C=C/c6ccccn6)CC[C@]5(CO)CC[C@@]4(C)[C@]3(C)CC[C@@H]12
2. O=C1c2ccccc2C(=O)C1C(c1ccc(F)cc1)C1C(=O)c2ccccc2C1=O
3. O=C1C2C(C(=O)N1c1ccccc1)C1([N+](=O)[O-])C=C3c4ccccc4N(C(=O)c4ccccc4)C32C2C(=O)N(c3ccccc3)C(=O)C21 (centres undefined)
4. CCCCCCCCCCCCCCCCOP(=O)(O)OCC(NC(C)=O)C(=O)O (centres undefined)
5. CC1=C(O)/C(=C/C(C)CCC/C(C)=C/C=C/C(C)CCCc2ccoc2)OC1=O (centres undefined)

1. 3.49 µM
2. > 100 µM
3. > 100 µM
4. > 100 µM
5. > 100 µM

Lab note: each compound below needs its TGI filled in.
1. O=c1cc(N=Nc2ccc(Cl)c(Cl)c2)[nH]c(=O)[nH]1
2. O=C1NNC2NC(=O)C3(NN2C1=O)c1ccccc1-c1ccccc13 (centres undefined)
3. O=C1OC(=O)C2CCCC3CCCC1C32 (centres undefined)
4. CSC1=NNC(SC)=NN1
5. COc1ccc2oc(C(=O)O)c3c2c1CCC3CCC(=O)O (centres undefined)

7.46 µM
> 100 µM
> 100 µM
0.385 µM
> 100 µM

Lab note: each compound below needs its TGI filled in.
1. O=C1/C(=C/c2ccc(Cl)cc2)CCC/C1=C\c1ccc(Cl)cc1
2. COc1ccc2c3c(c(C(=O)c4ccccc4)oc13)CCC2

1: > 100 µM; 2: > 100 µM
